Molecular target: UniProtKB Q92918
Sequence (Q92918 whole entry): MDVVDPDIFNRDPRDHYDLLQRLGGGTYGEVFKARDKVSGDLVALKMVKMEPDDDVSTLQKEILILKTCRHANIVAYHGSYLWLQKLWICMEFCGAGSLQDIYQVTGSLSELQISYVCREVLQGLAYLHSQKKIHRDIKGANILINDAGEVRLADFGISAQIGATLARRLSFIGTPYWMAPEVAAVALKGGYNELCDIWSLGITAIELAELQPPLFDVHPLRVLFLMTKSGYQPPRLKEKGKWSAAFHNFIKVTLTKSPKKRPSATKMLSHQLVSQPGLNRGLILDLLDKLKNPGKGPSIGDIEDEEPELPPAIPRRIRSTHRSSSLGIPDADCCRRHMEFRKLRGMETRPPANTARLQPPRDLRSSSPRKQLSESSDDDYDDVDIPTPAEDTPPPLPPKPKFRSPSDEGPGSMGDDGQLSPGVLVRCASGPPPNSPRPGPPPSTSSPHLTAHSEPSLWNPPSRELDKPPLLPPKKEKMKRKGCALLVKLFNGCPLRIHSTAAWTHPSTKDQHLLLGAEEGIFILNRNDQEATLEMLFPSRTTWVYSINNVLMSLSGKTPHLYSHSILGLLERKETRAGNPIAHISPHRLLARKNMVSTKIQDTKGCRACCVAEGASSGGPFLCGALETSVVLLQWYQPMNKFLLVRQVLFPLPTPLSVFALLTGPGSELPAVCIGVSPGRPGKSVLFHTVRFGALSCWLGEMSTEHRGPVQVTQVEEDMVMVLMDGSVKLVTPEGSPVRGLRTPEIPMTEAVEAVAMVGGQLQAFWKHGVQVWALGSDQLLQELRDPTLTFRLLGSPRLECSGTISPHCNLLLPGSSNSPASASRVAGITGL
Assay: FRET Assay for HPK1 (MAP4K1): one step binding assay, displacement of labeled tracer
Conditions: 1 μM compound; FRET ratio 665/620, percent of control
MEASURED QUANTITY: inhibition at 1 µM (%)
// units = %; emit number, no label

Query: Fill in: inhibition at 1 µM of CCOc1cccc(F)c1-c1cc2c(cn1)NC(=O)/C2=C(/C)Nc1cnn(C)c1 is ___
Result: 87.1

Query: GET /values?readout=inhibition at 1 µM&item= C/C(Nc1cnn(CC[C@@H](C)O)c1)=C1/C(=O)Nc2cnc(-c3cnccc3C)cc21
Result: 79.3

Query: Item under review: C/C(Nc1cnn(C)c1)=C1/C(=O)Nc2cccc(-c3cnccc3C)c21 . Reported inhibition at 1 µM?
Result: 62.8

Query: Need inhibition at 1 µM, item C/C(Nc1ccc(N(C)C)nc1)=C1/C(=O)Nc2cnc(-c3cnccc3C)cc21
Result: 72.4

Query: Recorded inhibition at 1 µM of C/C(Nc1ccn([C@H](C)CO)n1)=C1/C(=O)Nc2cnc(-c3cnccc3C)cc21 , please.
Result: 80.7

Query: Data request, read-out inhibition at 1 µM, for COc1cccc(F)c1-c1ccc2c(c1)/C(=C(\C)Nc1ccc(N3CCOCC3)cc1)C(=O)N2
Result: 73.3

Query: Using the record for C/C(Nc1cc(C)n([C@H](C)C#N)n1)=C1/C(=O)Nc2cnc(-c3c(C)cccc3F)cc21 , report its inhibition at 1 µM.
Result: 71.7

Query: Could you share which inhibition at 1 µM value was measured for C/C(Nc1cc2n(n1)CC(=O)N(C)C2)=C1/C(=O)Nc2cnc(-c3cnccc3C)cc21 ?
Result: 82.4
